Reference for the values: patent US10336702B2

target: Akt3 (Homo sapiens); construct: unspecified tag, removed (detagged) (cleaved yes); purchased SignalChem and Proteros (Akt3); Merck Millipore (PDK1) 14-452 (PDK1); none given for Akt3; experiment: Akt activation assay (PDK1-mediated activation, LANCE Ultra crosstide TR-FRET), Akt3; format: biochemical; conditions: read-out: Biological Assay 1 IC50 (nM) Akt3
Sequence (Q9Y243 whole entry): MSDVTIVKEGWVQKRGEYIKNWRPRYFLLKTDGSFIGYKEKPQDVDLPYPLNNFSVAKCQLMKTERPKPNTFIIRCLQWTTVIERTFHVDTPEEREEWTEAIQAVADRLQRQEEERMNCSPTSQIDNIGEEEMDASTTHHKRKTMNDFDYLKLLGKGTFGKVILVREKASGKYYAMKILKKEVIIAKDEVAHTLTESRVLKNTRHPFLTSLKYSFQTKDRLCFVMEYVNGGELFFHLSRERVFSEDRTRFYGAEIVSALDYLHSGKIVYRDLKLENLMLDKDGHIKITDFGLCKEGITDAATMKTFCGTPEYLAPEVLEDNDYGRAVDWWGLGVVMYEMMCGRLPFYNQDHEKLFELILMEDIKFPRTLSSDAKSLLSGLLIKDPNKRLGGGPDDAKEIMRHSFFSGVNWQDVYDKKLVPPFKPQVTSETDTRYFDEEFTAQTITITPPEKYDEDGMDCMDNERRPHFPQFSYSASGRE
measured metric: IC50 (nM)

Observe how each entry below is paired with its result.
>  <smiles>
C[C@]1(O)C[C@@](N)(c2ccc(-c3nnc(NC(=O)C[C@H]4CC[C@H](N5CCOC5=O)CC4)nc3-c3ccccc3F)cc2)C1

>  <IC50 [nM]>
99

$$$$
>  <smiles>
CN(C(=O)C1CC1)[C@H]1CC[C@H](CC(=O)Nc2cc(-c3ccccc3)c(-c3ccc([C@]4(N)C[C@](C)(O)C4)cc3)cn2)CC1

>  <IC50 [nM]>
6

$$$$
>  <smiles>
NC1(c2ccc(-c3ncc(NC(=O)[C@@H](F)C4CCN(S(=O)(=O)C5CC5)CC4)cc3-c3ccccc3)cc2)CCC1

>  <IC50 [nM]>
370

$$$$
>  <smiles>
CC(=O)N[C@H]1CC[C@H](CC(=O)Nc2cnc(-c3ccc(C(C)(C)N)cc3)c(-c3ccsc3)c2)CC1

>  <IC50 [nM]>
1900

$$$$

A. COC(=O)N(C)[C@H]1CC[C@H](CC(=O)Nc2cc(-c3ccccc3)c(-c3ccc(C4(N)CCC4)cc3)nn2)CC1
B. CCC(=O)N(C)[C@H]1CC[C@H](CC(=O)Nc2cc(-c3ccsc3)c(-c3ccc(C4(N)CC4)c(F)c3)nn2)CC1
C. CN(C(=O)C1CC1)[C@H]1CC[C@H](CC(=O)Nc2cnc(-c3ccc(C(C)(C)N)cc3)c(-c3ccccc3)c2)CC1
D. CC(=O)N(C(C)C)[C@H]1CC[C@H](CC(=O)Nc2cnc(-c3ccc(C4(N)CCC4)cc3)c(-c3ccccc3)c2)CC1
Problem: rank_up(items): orders items by reported IC50 in ascending numerical order. Your answer should be the labels, listed in the requested order.
Solution: A, B, D, C

###

target: p-Akt3 in WM115 cells (Homo sapiens, UniProt Q9Y243); construct: SureFire assays to detect cellular p-Akt1, p-Akt2 and p-Akt3 levels in WM115 cells (Akt2/3) and LNCaP cells (Akt1); endogenous in cells; host or cells: WM115 (ECACC 91061232), insulin-stimulated; test: Phospho-Akt cellular SureFire assay, p-Akt3 in WM115 cells; assay type: cell-based; conditions: insulin stimulated, read-out: Biological Assay 2 IC50 (nM) Akt3 WM115
measured metric: IC50 (nM)

>  <smiles>
CC(=O)N(C)[C@H]1CC[C@H](CC(=O)Nc2cc(-c3ccccc3)c(-c3ccc(C(C)(C)N)cc3)cn2)CC1

>  <target of assay>
p-Akt3 in WM115 cells (Homo sapiens, UniProt Q9Y243)

>  <IC50 / nM>
360

$$$$

P. COC(=O)N(C)[C@H]1CC[C@H](CC(=O)Nc2cnc(-c3ccc(C(C)(C)N)cc3)c(-c3ccsc3)c2)CC1
Q. CC(=O)N(C)[C@H]1CC[C@H](CC(=O)Nc2cc(-c3ccccc3F)c(-c3ccc(C4(N)CCC4)cc3)cn2)CC1
Problem: Endpoint returns whichever of P and Q has the numerically higher IC50. Record your answer as the label of the chosen record.
Solution: P
(P: 830 nM, Q: 81 nM)
